system: WM-115 (Melanoma); experiment: combination Emax (second highest fraction inhibited in the dose matrix, 72 h); higher = more inhibition; extreme values may be limits of the assay
Each entry gets NOT MET if its combination Emax stays under 0.4, and MET if its combination Emax is 0.4 or above.

These solved cases illustrate the format of a correct answer.
{"columns": ["MOLECULE", "CLASSIFICATION"],
 "data": [
  ["CN(C)CCCOc1ccc(-c2ccc3ncc4c(c3c2)n(C2CCOCC2)c(=O)n4C)cn1 [AZD0156] + C[C@@H]1COCCN1C2=NC(=NC(=C2)C3(CC3)[S@](=N)(=O)C)C4=C5C=CNC5=NC=C4 [AZD6738] (first compound max 1 µM, 7x7, partner max 10 µM)", "MET"],
  ["COc1cccc(OCCCN)c1-c1cc(Nc2cnc(C#N)cn2)n[nH]1 [Prexasertib] + C=CCn1c(=O)c2cnc(Nc3ccc(N4CCN(C)CC4)cc3)nc2n1-c1cccc(C(C)(C)O)n1 [AZD1775] (first compound max 1 µM, partner max 1 µM)", "MET"],
  ["N#Cc1cnc(Nc2cc(NC[C@H]3CNCCO3)c(C(F)(F)F)cn2)cn1 [SRA737] + O=c1[nH]cc(F)c(=O)[nH]1 [5-Fluorouracil] (first compound max 10 µM, 7x7, partner max 20 µM)", "NOT MET"],
  ["CN(CCO)CC[C@H](CSc1ccccc1)Nc1ccc(S(=O)(=O)NC(=O)c2ccc(N3CCC([C@@H](O)c4ccccc4-c4ccc(Cl)cc4)CC3)cc2)cc1S(=O)(=O)C(F)(F)F [AZD4320] + C1CN(CCC1(C(=O)N[C@@H](CCO)C2=CC=C(C=C2)Cl)N)C3=NC=NC4=C3C=CN4 [Capivasertib] (first compound max 1 µM, 7x7, partner max 3 µM)", "MET"]
]}

Quick check, combination Emax >= 0.4? Cc1cc2ncnn2cc1Nc1ncc2c(n1)n(C1CCOCC1)c(=O)n2C [AZD7648] + C[C@@H]1COCCN1C2=NC(=NC(=C2)C3(CC3)[S@](=N)(=O)C)C4=C5C=CNC5=NC=C4 [AZD6738] (first compound max 10 µM, 7x7, partner max 10 µM)
MET

Try COc1cccc(OCCCN)c1-c1cc(Nc2cnc(C#N)cn2)n[nH]1 [Prexasertib] + Cc1cc2ncnn2cc1Nc1ncc2c(n1)n(C1CCOCC1)c(=O)n2C [AZD7648] (first compound max 1 µM, 7x7, partner max 10 µM) next.
MET

Try C[C@@H]1COCCN1c1cc(C2([S@](C)(=N)=O)CC2)nc(-c2ccnc3[nH]ccc23)n1 [AZD6738] + O=C(c1cc(Cc2n[nH]c(=O)c3ccccc23)ccc1F)N1CCN(C(=O)C2CC2)CC1 [Olaparib] (first compound max 10 µM, 7x7, partner max 10 µM) next.
MET

Try CC1(C)CCC(CN2CCN(c3ccc(C(=O)NS(=O)(=O)c4ccc(NCC5CCOCC5)c([N+](=O)[O-])c4)c(Oc4cnc5[nH]ccc5c4)c3)CC2)=C(c2ccc(Cl)cc2)C1 [Venetoclax] + C[C@@H]1COCCN1C2=NC(=NC(=C2)C3(CC3)[S@](=N)(=O)C)C4=C5C=CNC5=NC=C4 [AZD6738] (first compound max 1 µM, 7x7, partner max 10 µM) next.
MET

Try CCc1c2c(nc3ccc(O)cc13)-c1cc3c(c(=O)n1C2)COC(=O)[C@]3(O)CC [SN-38] + CN(C)CCCOc1ccc(-c2ccc3ncc4c(c3c2)n(C2CCOCC2)c(=O)n4C)cn1 [AZD0156] (first compound max 0.3 µM, 7x7, partner max 1 µM) next.
MET

Try COc1cc2ncnc(Nc3ccc(F)c(Cl)c3)c2cc1OCCCN1CCOCC1 [Gefitinib] + CC(C)n1c(=O)n(C)c2cnc3cc(F)c(-c4ccc(OCCCN5CCCCC5)nc4)cc3c21 [AZD1390] (first compound max 10 µM, 7x7, partner max 0.3 µM) next.
NOT MET

Try CC1(C)CCC(CN2CCN(c3ccc(C(=O)NS(=O)(=O)c4ccc(NCC5CCOCC5)c([N+](=O)[O-])c4)c(Oc4cnc5[nH]ccc5c4)c3)CC2)=C(c2ccc(Cl)cc2)C1 [Venetoclax] + C[C@@H](Nc1cc(F)cc(F)c1)c1cc(C(=O)N(C)C)cc2c(=O)cc(N3CCOCC3)oc12 [AZD8186] (first compound max 1 µM, 7x7, partner max 3 µM) next.
MET

Try Cc1c2c(nn1C)CSCc1cc(n(C)n1)CSc1cc(c3ccccc3c1)OCCCc1c(C(=O)O)n(C)c3c-2c(Cl)ccc13 [AZD5991] + C[C@@H](Nc1cc(F)cc(F)c1)c1cc(C(=O)N(C)C)cc2c(=O)cc(N3CCOCC3)oc12 [AZD8186] (first compound max 1 µM, 7x7, partner max 3 µM) next.
MET

Try COc1nnc2ccc(N3CCC(c4ccc(OCCN5CCN(C)C(=O)[C@H]5C)cc4)CC3)nn12 [AZD5153] + C[C@@H]1COCCN1C2=NC(=NC(=C2)C3(CC3)[S@](=N)(=O)C)C4=C5C=CNC5=NC=C4 [AZD6738] (first compound max 1 µM, 7x7, partner max 10 µM) next.
MET
